All values here come from ChEMBL document CHEMBL1961873.

- TARGET OF ASSAY: Inhibitor of nuclear factor kappa-B kinase subunit epsilon (Homo sapiens) (UniProt Q14164);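 note: reported values are averaged percent inhibition figures against human IKKε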
- Sequence (Q14164 whole entry): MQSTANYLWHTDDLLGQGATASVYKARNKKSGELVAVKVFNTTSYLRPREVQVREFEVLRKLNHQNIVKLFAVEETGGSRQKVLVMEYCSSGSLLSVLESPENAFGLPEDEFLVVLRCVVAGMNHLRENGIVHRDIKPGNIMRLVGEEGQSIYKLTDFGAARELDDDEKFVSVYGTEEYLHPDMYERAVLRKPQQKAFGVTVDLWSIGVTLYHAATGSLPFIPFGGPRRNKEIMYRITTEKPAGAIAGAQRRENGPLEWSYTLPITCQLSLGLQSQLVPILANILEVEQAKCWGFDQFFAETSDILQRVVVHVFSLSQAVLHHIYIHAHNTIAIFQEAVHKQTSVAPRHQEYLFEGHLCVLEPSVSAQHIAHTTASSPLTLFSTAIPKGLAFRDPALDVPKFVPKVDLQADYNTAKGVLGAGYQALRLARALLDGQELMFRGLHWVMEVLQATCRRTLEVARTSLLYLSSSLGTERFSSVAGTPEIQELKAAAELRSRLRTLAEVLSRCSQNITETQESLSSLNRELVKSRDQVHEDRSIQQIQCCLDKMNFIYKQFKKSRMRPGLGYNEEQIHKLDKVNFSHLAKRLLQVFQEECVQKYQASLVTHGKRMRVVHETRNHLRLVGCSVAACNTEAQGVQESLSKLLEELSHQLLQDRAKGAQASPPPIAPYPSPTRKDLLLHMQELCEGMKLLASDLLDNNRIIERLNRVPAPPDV
- TEST CONTEXT: at 1 µM
Listed next: entries and their corresponding inhibition.
Numbers only; they are read as %.

The examples below pair each entry with its known result.
> print(dat)
                                   compound                           target.of.assay  measured.result
1  NS(=O)(=O)c1cccc(N/C=C2\C(=O)Nc3ccccc32)c1  Inhibitor of nuclear factor kappa-B kinase subunit epsilon (Homo sapiens) (UniProt Q14164)             14.5
2  COc1cccc(-n2ncc3c(N/N=C/c4ccc(C(=O)NCCN(C)C)cc4)ncnc32)c1  Inhibitor of nuclear factor kappa-B kinase subunit epsilon (Homo sapiens) (UniProt Q14164)            -5.84

Let us move to another entry and its inhibition.
q: GET /values?readout=inhibition&item= COC(=O)Nc1nc2ccc(Oc3ccc(NC(=O)Nc4cc(C(F)(F)F)ccc4F)cc3)cc2s1
a: -1.19
